Data credit: paper PMC11888271

Target: caspase-10 (Homo sapiens, UniProt Q92851)
Sequence (Q92851 220-415 limits assumed): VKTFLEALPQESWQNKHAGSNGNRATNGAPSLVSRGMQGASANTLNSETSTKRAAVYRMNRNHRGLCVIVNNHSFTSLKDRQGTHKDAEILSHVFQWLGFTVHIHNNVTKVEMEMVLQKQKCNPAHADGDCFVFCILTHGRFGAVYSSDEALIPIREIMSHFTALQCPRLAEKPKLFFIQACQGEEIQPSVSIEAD
Sequence (Q92851 416-521 limits assumed): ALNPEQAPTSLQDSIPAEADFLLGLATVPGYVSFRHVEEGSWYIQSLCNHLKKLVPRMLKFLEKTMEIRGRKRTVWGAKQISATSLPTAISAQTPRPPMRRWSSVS
pIC50: −log10 of the molar value. Peptide text beside a SMILES is read from it. * marks the point of attachment. Cbz = O=C(OCc1ccccc1)*; CH2F = FC*
measurement.type: pIC50

[P] COC(=O)CC[C@H](NC(=O)[C@H](CC(C)C)NC(=O)OCc1ccccc1)C(=O)N[C@@H](Cc1c[nH]cn1)C(=O)N[C@@H](CC(=O)OC)C(=O)CF [z-LEHD-FMK] (Cbz-LE(OMe)HD(OMe)-CH2F)
[Q] CC[C@H](C)[C@H](NC(=O)OCc1ccccc1)C(=O)N[C@@H](CCC(=O)OC)C(=O)N[C@H](C(=O)N[C@@H](CC(=O)OC)C(=O)CF)[C@@H](C)O [z-IETD-FMK] (Cbz-IE(OMe)TD(OMe)-CH2F)
Incoming: // compare measured pIC50 between P and Q ; output the lower one To answer, give the label that identifies your chosen option.
Outgoing: Q

----------
pIC50: −log10 of the molar value. Peptide text beside a SMILES is read from it. * marks the point of attachment. Cbz = O=C(OCc1ccccc1)*; CH2F = FC*
Listed here: compounds with reported pIC50 for UniProt Q14790.
Sequence (Q14790 217-374 limits assumed): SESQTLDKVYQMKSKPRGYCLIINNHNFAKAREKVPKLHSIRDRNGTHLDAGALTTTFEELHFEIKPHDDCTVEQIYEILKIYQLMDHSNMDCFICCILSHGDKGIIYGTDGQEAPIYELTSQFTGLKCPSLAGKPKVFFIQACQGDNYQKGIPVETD
Sequence (Q14790 385-479 limits assumed): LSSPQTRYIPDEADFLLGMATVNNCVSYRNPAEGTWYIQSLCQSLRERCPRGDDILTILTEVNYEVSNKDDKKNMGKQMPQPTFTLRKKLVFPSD
measurement.type: pIC50

[I] COC(=O)CC[C@H](NC(=O)[C@H](CC(C)C)NC(=O)OCc1ccccc1)C(=O)N[C@@H](Cc1c[nH]cn1)C(=O)N[C@@H](CC(=O)OC)C(=O)CF [z-LEHD-FMK] (Cbz-LE(OMe)HD(OMe)-CH2F)
[II] CC[C@H](C)[C@H](NC(=O)OCc1ccccc1)C(=O)N[C@@H](CCC(=O)OC)C(=O)N[C@H](C(=O)N[C@@H](CC(=O)OC)C(=O)CF)[C@@H](C)O [z-IETD-FMK] (Cbz-IE(OMe)TD(OMe)-CH2F)
Incoming: // compare measured pIC50 between I and II ; output the lower one To answer, give the label that identifies your chosen option.
Outgoing: II
(II: 6.46, I: 7.15)
